Data origin: the supplement of paper PMC3334620

- target: Stb5 (UniProt P38699)
- Sequence: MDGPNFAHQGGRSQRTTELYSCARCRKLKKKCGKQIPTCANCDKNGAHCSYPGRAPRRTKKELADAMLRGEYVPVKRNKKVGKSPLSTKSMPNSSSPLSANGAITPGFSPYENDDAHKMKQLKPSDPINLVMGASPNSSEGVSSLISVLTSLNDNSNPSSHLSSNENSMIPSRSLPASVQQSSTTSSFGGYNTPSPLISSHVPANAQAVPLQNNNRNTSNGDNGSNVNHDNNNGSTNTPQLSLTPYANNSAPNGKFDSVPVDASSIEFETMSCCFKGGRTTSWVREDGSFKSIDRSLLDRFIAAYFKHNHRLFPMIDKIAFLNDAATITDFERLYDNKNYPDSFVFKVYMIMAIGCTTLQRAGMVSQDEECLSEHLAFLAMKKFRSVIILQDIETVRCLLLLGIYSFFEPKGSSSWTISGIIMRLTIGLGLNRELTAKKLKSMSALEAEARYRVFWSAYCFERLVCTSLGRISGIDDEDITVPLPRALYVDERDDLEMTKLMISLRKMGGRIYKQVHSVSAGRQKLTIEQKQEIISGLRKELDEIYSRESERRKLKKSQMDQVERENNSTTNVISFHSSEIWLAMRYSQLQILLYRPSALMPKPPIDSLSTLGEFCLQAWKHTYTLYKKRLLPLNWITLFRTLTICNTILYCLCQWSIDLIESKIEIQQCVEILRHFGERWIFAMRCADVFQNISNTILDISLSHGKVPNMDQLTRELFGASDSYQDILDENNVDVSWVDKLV
- procedure.details: PBM E-score (8-mer binding enrichment) (E-score (-0.5 to 0.5)); higher = stronger / more preferred TF binding
- stated.conditions: protein concentration: 200 nM; construct: GST-full length
In all, about 33,000 sequences were measured (“E-score (-0.5 to 0.5)”: median about -0.054, highest 2% from about 0.35 on). Many of the other results were omitted from the sample, so the highest values are more common in it than they were.
measured.metric: PBM E-score
Enter a number only.

Record excerpt, results attached:
>>> df
      chain  reading
0  AGAAAAGG   -0.103
1  AGGTCCAG   -0.156
2  GGGAATAA    0.373
3  ATCACCTC   0.0381
4  ATCACCAG  -0.0626

Lab note: next sequence to report on.
Given item AGGTCCGA , the value recorded as its PBM E-score is 0.412

----------
- target: Stb5 (UniProt P38699)
- Sequence: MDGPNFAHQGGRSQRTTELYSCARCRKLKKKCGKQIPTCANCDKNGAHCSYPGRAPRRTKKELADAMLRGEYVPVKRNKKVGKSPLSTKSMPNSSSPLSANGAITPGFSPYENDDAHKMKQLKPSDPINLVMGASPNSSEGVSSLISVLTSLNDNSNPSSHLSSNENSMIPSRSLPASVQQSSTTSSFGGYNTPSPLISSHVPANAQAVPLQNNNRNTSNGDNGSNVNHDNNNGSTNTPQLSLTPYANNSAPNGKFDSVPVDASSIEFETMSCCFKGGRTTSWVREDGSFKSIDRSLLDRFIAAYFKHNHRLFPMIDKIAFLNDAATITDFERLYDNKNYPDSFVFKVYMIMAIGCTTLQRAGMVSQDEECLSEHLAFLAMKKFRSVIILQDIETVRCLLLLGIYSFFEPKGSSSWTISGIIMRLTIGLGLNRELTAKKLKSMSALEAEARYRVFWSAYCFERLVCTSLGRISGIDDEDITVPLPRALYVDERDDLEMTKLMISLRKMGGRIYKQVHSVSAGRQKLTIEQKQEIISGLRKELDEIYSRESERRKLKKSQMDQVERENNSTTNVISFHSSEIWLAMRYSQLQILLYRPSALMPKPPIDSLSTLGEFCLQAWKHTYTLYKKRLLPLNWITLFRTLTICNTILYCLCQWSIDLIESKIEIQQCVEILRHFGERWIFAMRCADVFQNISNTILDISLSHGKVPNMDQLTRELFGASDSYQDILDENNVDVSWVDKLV
- procedure.details: PBM E-score (8-mer binding enrichment) (E-score (-0.5 to 0.5)); higher = stronger / more preferred TF binding
- stated.conditions: protein concentration: 200 nM; construct: GST-full length
In all, about 33,000 sequences were measured (“E-score (-0.5 to 0.5)”: median about -0.054, highest 2% from about 0.35 on). For the sample, the highest values were picked, then their nearest neighbours and some sequences at random.
measured.metric: PBM E-score

>>> print(df.to_string())
      chain  measured_metric  reading
0  ATCGGTGG      PBM E-score    0.276
1  AGATCGGA      PBM E-score    0.335
2  AGCATCGG      PBM E-score    0.214

Given item ACATCCGC , the value recorded as its PBM E-score is 0.339

Given item CCCATTGC , the value recorded as its PBM E-score is 0.0345

Given item AAGAATAA , the value recorded as its PBM E-score is 0.0987

----------
- target: Stb5 (UniProt P38699)
- Sequence: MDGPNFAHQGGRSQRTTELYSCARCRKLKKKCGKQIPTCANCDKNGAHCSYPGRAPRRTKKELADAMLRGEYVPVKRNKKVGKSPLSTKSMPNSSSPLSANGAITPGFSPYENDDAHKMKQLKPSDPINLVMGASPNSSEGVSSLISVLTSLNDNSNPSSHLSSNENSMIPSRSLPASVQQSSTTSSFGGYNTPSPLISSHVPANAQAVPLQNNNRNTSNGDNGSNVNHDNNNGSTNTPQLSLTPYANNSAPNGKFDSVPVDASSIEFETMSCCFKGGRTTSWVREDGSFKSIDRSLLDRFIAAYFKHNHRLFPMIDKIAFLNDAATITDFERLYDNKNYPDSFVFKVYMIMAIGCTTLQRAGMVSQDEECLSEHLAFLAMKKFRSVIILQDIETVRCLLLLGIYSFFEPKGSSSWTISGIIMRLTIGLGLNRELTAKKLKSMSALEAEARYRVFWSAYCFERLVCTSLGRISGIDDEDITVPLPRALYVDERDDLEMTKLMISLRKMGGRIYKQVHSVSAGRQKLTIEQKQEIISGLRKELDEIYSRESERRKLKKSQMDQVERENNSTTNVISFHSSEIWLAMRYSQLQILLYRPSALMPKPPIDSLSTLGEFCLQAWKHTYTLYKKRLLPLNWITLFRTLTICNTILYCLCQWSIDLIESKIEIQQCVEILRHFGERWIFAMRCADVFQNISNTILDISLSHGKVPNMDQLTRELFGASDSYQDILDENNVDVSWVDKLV
- procedure.details: PBM E-score (8-mer binding enrichment) (E-score (-0.5 to 0.5)); higher = stronger / more preferred TF binding
- stated.conditions: protein concentration: 200 nM; construct: GST-full length
Whole data set: some 33,000 sequences, median “E-score (-0.5 to 0.5)” near -0.054, cut for the highest 2% near 0.35. Many of the other results were omitted from the sample, so the highest values are more common in it than they were.
measured.metric: PBM E-score

Record excerpt, results attached:
>>> print(df.to_string())
      chain  measured_metric  reading
0  ATCGGCAG      PBM E-score    0.219
1  ATGCACTA      PBM E-score  -0.0627
2  AGGGGTTC      PBM E-score    -0.15

Given item GATGAGAC , the value recorded as its PBM E-score is -0.136

Given item GGTTTGGA , the value recorded as its PBM E-score is 0.0254

----------
- target: Stb5 (UniProt P38699)
- Sequence: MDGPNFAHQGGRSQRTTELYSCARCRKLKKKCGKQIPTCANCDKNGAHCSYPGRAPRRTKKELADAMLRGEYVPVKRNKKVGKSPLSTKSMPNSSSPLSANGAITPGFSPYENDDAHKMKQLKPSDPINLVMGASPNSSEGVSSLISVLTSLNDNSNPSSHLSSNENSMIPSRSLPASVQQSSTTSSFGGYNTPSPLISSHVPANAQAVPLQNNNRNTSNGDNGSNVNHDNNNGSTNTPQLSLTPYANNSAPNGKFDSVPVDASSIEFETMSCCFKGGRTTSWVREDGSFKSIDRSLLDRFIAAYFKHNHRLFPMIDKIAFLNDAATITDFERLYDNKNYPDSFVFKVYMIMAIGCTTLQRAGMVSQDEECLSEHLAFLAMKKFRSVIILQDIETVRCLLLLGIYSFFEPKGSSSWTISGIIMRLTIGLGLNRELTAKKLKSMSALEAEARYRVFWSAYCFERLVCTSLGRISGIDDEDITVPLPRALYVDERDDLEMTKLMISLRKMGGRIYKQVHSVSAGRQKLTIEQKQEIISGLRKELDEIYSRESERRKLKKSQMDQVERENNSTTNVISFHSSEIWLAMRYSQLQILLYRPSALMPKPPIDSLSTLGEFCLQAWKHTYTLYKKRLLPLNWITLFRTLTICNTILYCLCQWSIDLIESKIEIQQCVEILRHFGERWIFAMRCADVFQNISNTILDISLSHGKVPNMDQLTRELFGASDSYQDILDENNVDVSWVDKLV
- procedure.details: PBM E-score (8-mer binding enrichment) (E-score (-0.5 to 0.5)); higher = stronger / more preferred TF binding
- stated.conditions: protein concentration: 200 nM; construct: GST-full length
The full ranking holds about 33,000 sequences; the median of “E-score (-0.5 to 0.5)” is about -0.054, and the highest 2% start at about 0.35. The list comes from a sample in which the highest values are over-represented; it also holds close analogues and randomly drawn sequences.
measured.metric: PBM E-score
Enter a number only.

Record excerpt, results attached:
>>> print(df.to_string())
      chain   reading
0  AATGTAGT    -0.128
1  GTACCGAC     0.382
2  CTACCGAC     0.264
3  CCACACGC   -0.0412
4  CCGATCGA     0.285
5  AGATCCAC  -0.00803

Given item CGCAGAAA , the value recorded as its PBM E-score is -0.114

Given item AAGTTCCT , the value recorded as its PBM E-score is -0.098

Given item CCACTAGG , the value recorded as its PBM E-score is -0.166

Given item CTCGATGC , the value recorded as its PBM E-score is -0.2

Given item AGGCCCAG , the value recorded as its PBM E-score is -0.226
